Tested on: SW-620
Protocol description: NCI tumour cell line growth inhibition, 48 h
Active and inactive are the calls of the source. Rule as the data show it: active = GI50 up to about 1.1 µM and inactive = higher.
I'd appreciate it if you could supply GI50 values for the items below.

If you can, please state the reported GI50 value of Cc1ccc(C(=O)NC2CCCCC2)cc1/N=N/N(C)C .
> 100 µM (inactive)

If you can, please state the reported GI50 value of CC(CCc1ccccc1)NCC(O)n1c(/N=N/N(C)C)nc2c1c(=O)n(C)c(=O)n2C (stereo not drawn) .
> 100 µM (inactive)

If you can, please state the reported GI50 value of CO[C@]1(c2ccc([N+](=O)[O-])cc2)Oc2ccccc2C(=O)[C@@]1(Nc1ccc(C=O)cc1)OC .
> 10 µM (inactive)

If you can, please state the reported GI50 value of CN1C(=O)CCC1c1ccc2c(c1)oc(=O)n2C (stereo not drawn) .
> 100 µM (inactive)

If you can, please state the reported GI50 value of O=C1/C(=C\c2ccc([N+](=O)[O-])o2)SC2NC(COc3ccc(Cl)cc3)=NN12 (stereo not drawn) .
2.43 µM (inactive)

If you can, please state the reported GI50 value of COc1ccc(-c2cc(-c3ccccc3)n(C3OC(COC(C)=O)C(OC(C)=O)C(OC(C)=O)C3OC(C)=O)c(=S)c2C#N)cc1 (stereo not drawn) .
13.9 µM (inactive)

If you can, please state the reported GI50 value of O=C1C=C(Nc2cccnc2)c2ccccc2/C1=N/O .
18.3 µM (inactive)

If you can, please state the reported GI50 value of NC(=O)C(N)=O .
> 100 µM (inactive)

* * *

Tested on: SNB-75
Protocol description: NCI tumour cell line growth inhibition, 48 h
Active and inactive are the calls of the source. No stated cut-off is given here; in the data, active = GI50 up to about 1.1 µM and inactive = higher.
Endpoint label: GI50

If you can, please state the reported GI50 value of Cc1cc(S(=O)(=O)Nc2nnc3cc(C(F)(F)F)cc(C)n23)c(S)cc1Cl .
> 71.1 µM (inactive)

If you can, please state the reported GI50 value of O=c1nc(NC(c2ccccc2)(c2ccccc2)c2ccccc2)ccn1CCCl .
17.6 µM (inactive)

If you can, please state the reported GI50 value of CN(C(=O)Nc1ccc(Cl)c(Cl)c1)C1CCCC[C@@H]1N1CCCC1 (stereo partly drawn) .
40.2 µM (inactive)

If you can, please state the reported GI50 value of CC1=C(C#N)C(=C(C#N)C#N)OC1(C)Cc1ccccc1 (stereo not drawn) .
> 100 µM (inactive)

If you can, please state the reported GI50 value of CC(C)CCC[C@@H](C)C1CCC2[C@@H]3CC=C4C[C@@H](OC(=O)CCC(=O)NCC[N+](C)(C)CCCS(=O)(=O)[O-])CC[C@]4(C)C3CC[C@@]21C (stereo partly drawn) .
21.1 µM (inactive)

If you can, please state the reported GI50 value of O=C(/C=C/c1ccc(OCc2ccccc2)cc1)NCc1ccc(C(=O)NCc2ccccc2)cc1 .
36.6 µM (inactive)

If you can, please state the reported GI50 value of COc1cc2c(c(O)c1OC)CC1CCC(=O)N1C2c1cccc2ccccc12 (stereo not drawn) .
39 µM (inactive)

If you can, please state the reported GI50 value of CN(C)c1ccc(C2=C([O-])c3cc(-[n+]4ccccc4)ccc3C2=O)cc1 .
> 100 µM (inactive)

* * *

Tested on: HL-60
Protocol description: NCI tumour cell line growth inhibition, 48 h
Activity calls are given as the source filed them. Cut-off read from the data, not from the text of the source: active = GI50 up to about 1.1 µM and inactive = higher.
Endpoint label: GI50

If you can, please state the reported GI50 value of COc1ccc(CCn2cncn2)cc1 .
> 100 µM (inactive)

If you can, please state the reported GI50 value of Clc1ncnc2c1nc(C#Cc1ccccc1)n2C1CCCCO1 (configuration not stated) .
2.59 µM (inactive)

If you can, please state the reported GI50 value of COC(=O)C1=C(OC(=O)/C(=C/c2ccccc2)c2ccc(Cl)cc2)C(C(=O)OC)[C@@]2(O)[C@@H](C(=O)OC)[C@H](C)C[C@@H]1[C@@H]2C(=O)OC (some centres not stated) .
> 100 µM (inactive)

If you can, please state the reported GI50 value of C[C@]12CC[C@H](O)CC1=CC[C@@H]1[C@@H]2CC[C@]2(C)C(=N/O)/C(=C/c3ccc([N+](=O)[O-])cc3)C[C@@H]12 .
1.91 µM (inactive)

If you can, please state the reported GI50 value of CCOC(=O)/C=C/n1c2ccccc2c(=O)c2ccccc21 .
> 100 µM (inactive)

If you can, please state the reported GI50 value of COc1ccc(/C=C2/S/C(=N\c3ccccc3)N(NC(=O)Cc3ccccc3)C2=O)cc1 .
> 100 µM (inactive)

If you can, please state the reported GI50 value of COc1cccc(OCC(=N/NC(=O)c2ccncc2)/N=C/c2ccncc2)c1 .
> 100 µM (inactive)

If you can, please state the reported GI50 value of CC(=O)c1c2c(cc3c1CC1(Cc4cc5c(cc4C1)C(=O)CCC5)C3)CCCC2 (configuration not stated) .
1.82 µM (inactive)

If you can, please state the reported GI50 value of COc1ccc2oc(=O)c(CC=C(C)C)c(O)c2c1C .
> 100 µM (inactive)

If you can, please state the reported GI50 value of NC(=O)COC(=O)c1c(Cl)nc2sccn12 .
> 46 µM (inactive)

If you can, please state the reported GI50 value of Brc1cccc(/N=N/N2CCCC2)c1 .
16.4 µM (inactive)

If you can, please state the reported GI50 value of Nc1nc(CCC(=O)Nc2cccc(C(F)(F)F)c2)cc(-c2ccc3ccccc3c2)n1 .
> 100 µM (inactive)

* * *

System: HCT-15
Endpoint label: GI50

If you can, please state the reported GI50 value of CC(C)(Oc1ccc(C(=O)c2ccc(Cl)cc2)cc1Cl)C(=O)N1CCN(c2ccccc2)CC1 .
> 100 µM

If you can, please state the reported GI50 value of CCO/C(=N/S(=O)(=O)C(F)(F)F)N(C(C)C)C(C)C .
> 100 µM

If you can, please state the reported GI50 value of COc1cccc(N2N=C3c4ccccc4-n4c(nc5ccccc54)C3C2N)c1 (stereo not given) .
> 100 µM

If you can, please state the reported GI50 value of C/C(=N\[N+](C)(C)C)c1ccc(C)c(C)c1 .
> 10 µM

If you can, please state the reported GI50 value of COc1ccc(N(C)CN(C)c2nc(N(C)C)nc(N(C)C)n2)cc1 .
> 100 µM

If you can, please state the reported GI50 value of CC(C)=CCC/C(C)=C/CO .
> 100 µM

If you can, please state the reported GI50 value of O=C(NCCc1n[nH]c2c1C(=O)C=C(Nc1ccccc1)C2=O)OCc1ccccc1 .
> 100 µM

If you can, please state the reported GI50 value of COc1cc2c(ccc3c4cc(OC)c(OC)cc4c[n+](C)c23)cc1O .
> 73.3 µM

If you can, please state the reported GI50 value of Cc1cc(S(=O)(=O)Nc2nnc3cc(C(F)(F)F)cc(C)n23)c(S)cc1Cl .
> 91.6 µM

If you can, please state the reported GI50 value of N#Cc1ccc(Oc2nc3ccccc3nc2C(=O)O)cc1 .
> 100 µM

* * *

I'd appreciate it if you could supply GI50 values for the items below.
Tested on: SK-MEL-5
Protocol description: NCI tumour cell line growth inhibition, 48 h
Calls of active or inactive are those of the source. No stated cut-off is given here; in the data, active = GI50 up to about 1.1 µM and inactive = higher.

Form entry - test system: SK-MEL-5; read-out: GI50; compound: N#Cc1ccccc1Nc1ccccc1S
17.9 µM (inactive)

Form entry - test system: SK-MEL-5; read-out: GI50; compound: CC(C)=NOC(=O)Nc1cccc2c1OCO2
> 100 µM (inactive)

Form entry - test system: SK-MEL-5; read-out: GI50; compound: COC1CCC(OC)C(C2(C3CC(OC)CCC3OC)OC(=O)c3ccccc32)C1 (stereo unspecified)
26.4 µM (inactive)

Form entry - test system: SK-MEL-5; read-out: GI50; compound: O=C1c2ccccc2NC(=O)C2C1C(c1ccccc1)CC2(O)c1ccccc1 (stereo unspecified)
84.5 µM (inactive)

Form entry - test system: SK-MEL-5; read-out: GI50; compound: CSc1c(C(=O)Nc2ccc(Cl)cc2)c(N)n(N)c(=O)c1C#N
> 100 µM (inactive)

Form entry - test system: SK-MEL-5; read-out: GI50; compound: O=C(Nn1c(-c2ccccc2)nc2ccccc2c1=O)c1ccc(CS)cc1
11.8 µM (inactive)

Form entry - test system: SK-MEL-5; read-out: GI50; compound: O=C1C=C(Nc2cccnc2)c2ccccc2/C1=N/O
4.67 µM (inactive)

Form entry - test system: SK-MEL-5; read-out: GI50; compound: Cc1n[nH]c(C(F)(F)F)c1/N=N/N1CCOCC1
2.92 µM (inactive)

Form entry - test system: SK-MEL-5; read-out: GI50; compound: CC(C)CCC[C@@H](C)C1CCC2[C@@H]3CC=C4C[C@@H](OC(=O)CCC(=O)NCC[N+](C)(C)CCCS(=O)(=O)[O-])CC[C@]4(C)C3CC[C@@]21C (stereo partly specified)
> 10 µM (inactive)

Form entry - test system: SK-MEL-5; read-out: GI50; compound: C=C1CC(COc2ccc3c(C)c(C)c(=O)oc3c2C)(c2ccccc2)OC1=O (stereo unspecified)
1.59 µM (inactive)

Form entry - test system: SK-MEL-5; read-out: GI50; compound: Cn1cnc([N+](=O)[O-])c1Sc1nc(N)nc2c1ncn2C1OC(CO)C(O)C1O (stereo unspecified)
6.22 µM (inactive)
